Reference for the values: ChEMBL document CHEMBL1157539

Tested on: Plasmodium falciparum
Experiment: GSK_TCMDC: Inhibition of Plasmodium falciparum Dd2 in whole red blood cells, using parasite LDH activity as an index of growth. Test compounds present at 2uM
Assay type: functional
measurementType: Inhibition (%)
Please give a number only; it is taken to be in %.

// worked examples, Inhibition included
CCCCNC(=O)C(C)NC(=O)c1ccc(O)c(-c2ccc(Cl)c(Cl)c2)c1 (stereo not given)    8
CCCNc1ccc2nccc(CCN3CCC(NCc4ccc5c(c4)NC(=O)CS5)CC3)c2n1.Cl    17
O=C(Nc1ccc2[nH]c(-c3ccc4nc(NC(=O)C5CCCCC5)sc4c3)nc2c1)C1CCCCC1    68
COC(=O)C1=CNC=C(C(=O)OC)C1c1ccc(Cl)c([N+](=O)[O-])c1    79

Param item = Cl.N=C(N)c1ccc(OCc2cccc(COc3ccc(C(=N)N)cc3I)c2)c(I)c1 ; retrieve measured Inhibition.
100

---

Tested on: HepG2
Experiment: GSK_TCMDC: Percent inhibition of human HepG2 cell line. Test compounds present at 10uM.
Type: functional
Reported values of Inhibition for individual entries
Please give a number only; it is taken to be in %.

// worked examples, Inhibition included
C=C[C@H]1CN(CCCCCCC)CC[C@H]1C[C@@H](Cc1ccnc2ccc(OC)cc12)OC(=O)[C@](OC)(c1ccccc1)C(F)(F)F    12
Cc1ccc(C2CC(=O)CC(c3ccccn3)C2[N+](=O)[O-])cc1 (centres undefined)    5
CC(=O)N(C)c1cccc(CNc2cc(C)nc(Nc3ccc(C)cc3)n2)c1    8
O=C(NOCc1ccccc1)c1cc(Cl)ccc1O    2
COCCOc1ccc(Nc2nccc(-c3c(-c4cccc(NC(=O)c5c(F)cccc5F)c4)nn4ccccc34)n2)cc1F    62
CC1(C)N=C(N)N=C(N)N1CCc1ccccc1.Cl    50
Cc1cccc2nc(-c3ccc(-c4cccc(NC(=O)NCc5ccc(F)cc5)c4)cc3)[nH]c12    82
C[C@H](N[C@H]1CCCc2c1[nH]c1ccc(Br)cc21)c1ccccc1.Cl    58

Param item = CCc1cc(C(=O)c2cccc(C)c2)c(NC(=O)CN2CCN(C(=O)c3ccco3)CC2)s1 ; retrieve measured Inhibition.
0

---

Tested on: HepG2
Test: GSK_TCMDC: Percent inhibition of human HepG2 cell line. Test compounds present at 10uM.
Type: functional
measurementType: Inhibition (%)
Please give a number only; it is taken to be in %.

Param item = COc1ccc(-c2ccc(NC(=O)c3cccc(F)c3)cc2)cc1CNC(C)C.O=C(O)C(F)(F)F ; retrieve measured Inhibition.
17

Can you check C[C@H](Cc1ccc(OCCCCCOc2ccc(C[C@@H](C)NC[C@H](O)c3cccc(Cl)c3)cc2)cc1)NC[C@H](O)c1cccc(Cl)c1.Cl next?
99

Can you check COc1cc2nc(-c3ccccc3)nc(N3CCN(C(=O)c4ccco4)CC3)c2cc1OC next?
0

Can you check Cc1ccccc1C1CCN(C2CCC(NC(=O)/C=C/c3cccc(F)c3F)CC2)CC1 (centres undefined) next?
57

---

Test system: Plasmodium falciparum
Assay: GSK_TCMDC: Inhibition of Plasmodium falciparum Dd2 in whole red blood cells, using parasite LDH activity as an index of growth. Test compounds present at 2uM
Format: functional
Reported values of Inhibition for individual entries

O=[N+]([O-])c1cccc(-c2ccc(C=NNc3cc(N4CCCC4)nc(N4CCCC4)n3)o2)c1    67%
c1ccc2[nH]c(-c3ccc(-c4ccc(CN5CCC(N6CCCCC6)CC5)cc4)s3)nc2c1    100%
Cc1nc(C)c(-c2ccc(Oc3ccc(OC(F)(F)F)cc3)cc2)c(OC(=O)c2ccc(CN(C)C)cc2)c1Cl    98%
O=C(NCC1CCC(C(=O)O)CC1)c1ccc(/C=C/C(=O)N2CCc3ccccc3C2c2ccc3c(c2)OCO3)cc1 (configuration not stated)    17%

Param item = CS(=O)(=O)Nc1ccc2[nH]cc(C3CCN(CC4CCC(NC(=O)/C=C/c5ccc(Cl)c(Cl)c5)CC4)CC3)c2n1 (configuration not stated) ; retrieve measured Inhibition.
10%

Can you check CC(C)(C(=O)Nc1ccc(C2CCC(NCC3CC3)CC2)c(Cl)c1)c1cccc(OC(F)F)c1 (configuration not stated) next?
23%

---

Test system: Plasmodium falciparum
Test: GSK_TCMDC: Inhibition of Plasmodium falciparum 3D7 in whole red blood cells, using parasite LDH activity as an index of growth. Test compounds present at 2uM
Assay type: functional
measurementType: Inhibition
Don't forget the unit after the value.

// worked examples, Inhibition included
C(=NN=c1cc(-c2ccccc2)[nH]c2ccccc12)c1cccnc1    87%
Cc1cc(N2CCN(CC3CCN(C)CC3)CC2)nc(Nc2ccc(Br)cc2)n1    100%
COc1ccc(NC(=O)NC2CCN(c3ccnc4ccccc34)C2)cc1.O=C(O)C(F)(F)F (stereo not given)    94%
CC(=NNC(N)=O)C1=C(O)C(c2ccccc2)N(C2CCCCC2)C1=O (stereo not given)    93%

Param item = COCCn1c(Sc2ccc(C#N)c([N+](=O)[O-])c2)nnc1-c1ccc(N(C)C)cc1 ; retrieve measured Inhibition.
89%

---

Tested on: HepG2
Test: GSK_TCMDC: Percent inhibition of human HepG2 cell line. Test compounds present at 10uM.
Format: functional
Hi, to clarify the labels: Y covers Inhibition from 10% upward, N covers anything below 10%.

Does Inhibition meet or surpass 10% for CN(C)Cc1cccc(-c2ccc(NC(=O)c3ccc4c(=O)n(CCN5CCCCC5)cnc4c3)cc2)c1 ?
Y

Can you check COc1ccc(NS(=O)(=O)c2cccc(C(=O)Nc3ccc(C(F)(F)F)cc3)c2)cc1N1CCN(CC(C)C)CC1.O=C(O)C(F)(F)F next?
N

Can you check CCCCCCCN1CCC(CC(=O)Nc2ccnc3ccc(OC)cc23)C(CC)C1 (centres undefined) next?
Y

---

Test system: Plasmodium falciparum
Test: GSK_TCMDC: Inhibition of Plasmodium falciparum Dd2 in whole red blood cells, using parasite LDH activity as an index of growth. Test compounds present at 2uM
Type: functional
measurementType: Inhibition (%)
Please give a number only; it is taken to be in %.

Return Inhibition measured with Plasmodium falciparum given this molecule: N=C(N)NC(=O)Nc1cc(F)c(Cl)c(Cl)c1
100

Can you check COc1ccc2nccc([C@@H](O)CN3CCC(NCc4cc5ccccc5s4)CC3)c2c1.O=C(O)C(=O)O next?
53

Can you check COc1ccc2nccc([C@@H](O)CN3CCC(NC(=O)C(c4cc5ccccc5o4)N4CCN(c5ccccc5OC)CC4)CC3)c2c1 (stereo not given in full) next?
83

Can you check CC(C)(C)c1cc2cc(Nc3ccnc4cc(-c5nccs5)ccc34)ccc2[nH]1.Cl next?
97

Can you check CCOC(=O)c1ccc(NCc2ccccn2)cc1 next?
0

---

System: Plasmodium falciparum
Assay: GSK_TCMDC: Inhibition of Plasmodium falciparum 3D7 in whole red blood cells, using parasite LDH activity as an index of growth. Test compounds present at 2uM
Assay type: functional
measurementType: Inhibition
Don't forget the unit after the value.

COc1ccc(NS(=O)(=O)c2cccc(C(=O)Nc3ccc(C(F)(F)F)cc3)c2)cc1N1CCN(CC(C)C)CC1.O=C(O)C(F)(F)F    94%
COc1ccc2ncc(F)c(CCN3CC[C@H](NCc4cc5c(s4)CCCN5)[C@H](O)C3)c2n1.Cl    96%
Cc1nc(C)c(-c2ccc(C(=O)c3ccccc3)cc2)c(O)c1Br    95%
O=C(Cn1nc(Br)nc1[N+](=O)[O-])NCC1CCCCC1    96%

Read the next record carefully.
Param item = CC(C)(C)OC(=O)c1c(NC(=O)/C=C/c2ccc(O)c(O)c2)sc2c1CCCC2 ; retrieve measured Inhibition.
97%

---

Tested on: Plasmodium falciparum
Assay: GSK_TCMDC: Inhibition of Plasmodium falciparum Dd2 in whole red blood cells, using parasite LDH activity as an index of growth. Test compounds present at 2uM
Format: functional
Each entry falls in a class defined on Inhibition; the bands are 0: < 20%; 1: ≥ 20% and < 90%; 2: ≥ 90%

Solved cases (3 shown):
Cc1cccc2nc(-c3cccc(-c4cccc(C(=O)NCCN5CCCC5)c4)c3)[nH]c12    1
O=S(=O)(c1ccc2cc[nH]c2c1)N1CCC[C@@H]1CCN1CCC(c2c[nH]c3cnccc23)CC1    0
CCCc1cc(OC)c(C[C@H]2c3cc(O)c(Cl)cc3CCN2C)cc1OC.Cl    2

Class for O=C(Nc1cccc(F)c1)c1ccc(C(=O)NC2CCN(CC3CCCCC3)C2)cc1.O=C(O)C(F)(F)F (stereo not drawn) ?
0

Can you check COc1ccc(CCC(C)N2CC(N)C(c3cn(C)c4cnccc34)C2)cc1.Cl (stereo not drawn) next?
0

Can you check CCNc1cc(C(=O)N[C@@H](Cc2ccccc2)[C@H](O)CNC(C)(C)CC(C)(C)C)c(F)c(N2CCCCS2(=O)=O)c1 next?
1

Can you check CCCCN1CCN(Cc2cccc(NC(=O)c3ccc(Cl)c(Cl)c3)c2)CC1.O=C(O)C(F)(F)F next?
1

Can you check O=C(NC1CCN(CCCc2ccccc2)CC1)c1ccc(-c2cccc(C(F)(F)F)c2)s1.O=C(O)C(F)(F)F next?
1

Can you check Cl.N=C(N)c1ccc(OCCCCCOc2ccc(C(=N)N)cc2)cc1 [PENTAMIDINE HYDROCHLORIDE] next?
2

Can you check Cc1ccc(CCC(C)NCC(O)c2cccc(Cl)c2)cc1 (stereo not drawn) next?
2
